# target or system: T1, GFP-9S library array, motif 4 ND N98I;D124C (synthetic construct, N98I;D124C)
# T1 chain: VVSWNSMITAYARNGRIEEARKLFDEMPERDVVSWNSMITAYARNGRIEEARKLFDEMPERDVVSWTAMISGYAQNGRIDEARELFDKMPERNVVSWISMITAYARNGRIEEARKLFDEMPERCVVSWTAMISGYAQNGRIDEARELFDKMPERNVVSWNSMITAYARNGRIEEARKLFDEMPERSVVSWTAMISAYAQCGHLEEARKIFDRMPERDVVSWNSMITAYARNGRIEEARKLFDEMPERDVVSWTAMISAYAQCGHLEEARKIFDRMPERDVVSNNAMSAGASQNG
# test description: high-throughput RNA pulldown from lysate on Ni-NTA beads; HRP: 50 mM Tris pH 8, 150 mM NaCl, 1 mM beta-mercaptoethanol, 50 ug/ml BSA, 3 ug/ml yeast RNA, 0.5% heparin; ITC and FP: Tris pH 8, 200 mM KCl, 5% glycerol; MST: 50 mM Tris pH 8, 200 mM NaCl, 1 mM DTT, BSA, heparin, 0.05% Tween 20
# applied conditions: tags: N-terminal His-eGFP; label: 5' Cy5
reported property: Kd (nM)

AUUACACGUGA (ssRNA) [Cy5-rpoA]: 182
AUUAGACGUGA (ssRNA) [Cy5-rpoA-G]: 90.6
